- Tested on: CCRIS mutagenicity, Ames/micronucleus/aberration tests
- protocol.details: CCRIS mutagenicity studies
- experimental.context: Test System: MOUSE LYMPHOMA; Strain/Indicator: L5178Y (TK+/TK-); Metabolic Activation: NONE; Method: SUSPENSION/PLATE
Active and inactive are the calls of the source. No rule for the calls is given here.
Valid outcomes are listed here; reply with one: 1.0 = active, 0.0 = inactive

>>> assigned_label("O=c1c(O)c(-c2ccc(O)cc2)oc2cc(O)cc(O)c12")
1.0
>>> assigned_label("O=c1[nH]c2ccccc2o1")
1.0

Q: State the result this test recorded for O=C1c2ccccc2-c2ccccc21 .
Ans: 0.0

Q: State the result this test recorded for NCCc1ccc(O)cc1 .
Ans: 1.0
